- assayMethodText: Solid stability test of crystal forms (high temperature, high humidity, light radiation, accelerated conditions; appearance, content, impurities, crystal form by XRPD)
- Format: physicochemical
- conditionNotes: Light radiation (total illumination 1.2 × 10^6 Lux · hr), Day 12
measurementLabel: Appearance

[[record]]
molecule = "O=C(O)[C@H]1C2CCC(CC2)[C@@H]1Nc1nc(-c2n[nH]c3ncc(F)cc23)nc(C2CC2)c1F [crystal form F]"
result = "Off-white solid"

[[record]]
molecule = "O=C(O)[C@H]1C2CCC(CC2)[C@@H]1Nc1nc(-c2n[nH]c3ncc(F)cc23)nc(C2CC2)c1F [crystal form D]"
result = "Off-white solid"

[[record]]
molecule = "O=C(O)[C@H]1C2CCC(CC2)[C@@H]1Nc1nc(-c2n[nH]c3ncc(F)cc23)nc(C2CC2)c1F [crystal form H]"
result = "Yellowish solid"

[[record]]
molecule = "O=C(O)[C@H]1C2CCC(CC2)[C@@H]1Nc1nc(-c2n[nH]c3ncc(F)cc23)nc(C2CC2)c1F [crystal form G]"
result = "Yellowish solid"


---

- assayMethodText: Solid stability test of crystal forms (high temperature, high humidity, light radiation, accelerated conditions; appearance, content, impurities, crystal form by XRPD)
- Assay type: physicochemical
- conditionNotes: Day 0 (initial)
measurementLabel: Appearance

[[record]]
compound = "O=C(O)[C@H]1C2CCC(CC2)[C@@H]1Nc1nc(-c2n[nH]c3ncc(F)cc23)nc(C2CC2)c1F [crystal form H]"
result = "Off-white solid"

[[record]]
compound = "O=C(O)[C@H]1C2CCC(CC2)[C@@H]1Nc1nc(-c2n[nH]c3ncc(F)cc23)nc(C2CC2)c1F [crystal form D]"
result = "Off-white solid"


---

- assayMethodText: Solid stability test of crystal forms (high temperature, high humidity, light radiation, accelerated conditions; appearance, content, impurities, crystal form by XRPD)
- Type: physicochemical
- conditionNotes: Day 0 (initial)
This section presents compounds with their documented Total Impurities (%) values.
Dear colleague, please return just the value in %, with no unit written.

Data request: Entry under review: O=C(O)[C@H]1C2CCC(CC2)[C@@H]1Nc1nc(-c2n[nH]c3ncc(F)cc23)nc(C2CC2)c1F [crystal form H] . Reported Total Impurities (%)?
Data returned: 1.8

Data request: Try the compound O=C(O)[C@H]1C2CCC(CC2)[C@@H]1Nc1nc(-c2n[nH]c3ncc(F)cc23)nc(C2CC2)c1F [crystal form F]
Data returned: 1.7

Data request: Similarly, O=C(O)[C@H]1C2CCC(CC2)[C@@H]1Nc1nc(-c2n[nH]c3ncc(F)cc23)nc(C2CC2)c1F [crystal form D] ?
Data returned: 3.3

Data request: And then O=C(O)[C@H]1C2CCC(CC2)[C@@H]1Nc1nc(-c2n[nH]c3ncc(F)cc23)nc(C2CC2)c1F [crystal form G] , what is it?
Data returned: 0.35

Data request: Next: O=C(O)[C@H]1C2CCC(CC2)[C@@H]1Nc1nc(-c2n[nH]c3ncc(F)cc23)nc(C2CC2)c1F (single isomer, unassigned) [crystal form A]
Data returned: 1.49

Data request: # repeat for O=C(O)[C@H]1C2CCC(CC2)[C@@H]1Nc1nc(-c2n[nH]c3ncc(F)cc23)nc(C2CC2)c1F (single isomer, unassigned) [crystal form B]
Data returned: 1.11

Reference for the values: patent US11535613B2
